# System: CCRIS mutagenicity, Ames/micronucleus/aberration tests
# assay-summary: CCRIS mutagenicity studies
# protocol-conditions: Test System: AMES SALMONELLA TYPHIMURIUM; Strain/Indicator: TA1535; Metabolic Activation: NONE; Method: PREINCUBATION
The source made the active and inactive calls. How the calls were made is not given here.
Form entry, call: pick from active, inactive

Assay result, entry NC(=O)N(CCC(=O)O)N=O — outcome?
active

Queued: CCOCCOC(=O)/C=C/c1ccc(OC)cc1
inactive

Queued: BrCC(Br)C1CCC(Br)C(Br)C1 (configuration not stated)
inactive

Queued: O=C(O)Cc1ccc(O)c(O)c1
inactive

Queued: CN(C)C(=O)Nc1ccc(Cl)cc1
inactive

Queued: NC(N)=S
inactive

Queued: Cc1ccccc1C
inactive

Queued: CS(=O)(=O)c1ccc(O)c(N)c1
inactive

Queued: C=C(C)C(=O)OCCN(C)C
inactive

Queued: CCCCCN(CCCOC)C(=O)C(CCC(=O)O)NC(=O)c1ccc(Cl)c(Cl)c1 (configuration not stated)
inactive

Queued: C=O
inactive

Queued: COCCOC(C)=O
inactive

Queued: O=[N+]([O-])c1cc(Cl)ccc1Cl
inactive

Queued: C1CNCCN1
inactive

Queued: N[C@H](Cc1ccccc1)C(=O)O
inactive

Queued: O=C(O)c1ccccc1O
inactive

Queued: CCCCCCCCCCCC(=O)O
inactive

Queued: Cc1ccccc1S(N)(=O)=O
inactive

Queued: O=S(=O)(O)OOS(=O)(=O)O
inactive

Queued: CCCCCCCCc1ccc(Nc2ccc(CCCCCCCC)cc2)cc1
inactive

Queued: O=[N+]([O-])c1c(Cl)c(Cl)cc(Cl)c1Cl
inactive

Queued: O.O.O.O.O.O.O=[N+]([O-])[O-].O=[N+]([O-])[O-].O=[N+]([O-])[O-].[La+3]
inactive

Queued: O=P(OCCCl)(OCCCl)OCCCl
inactive

Queued: O=Cc1ccccc1
inactive

Queued: Oc1ccccc1
inactive

Queued: CC(C)[N+](C)(CCOC(=O)C1c2ccccc2Oc2ccccc21)C(C)C
inactive

Queued: Clc1cccc(Cl)c1Cl
inactive

====

# System: CCRIS mutagenicity, Ames/micronucleus/aberration tests
# assay-summary: CCRIS mutagenicity studies
# protocol-conditions: Test System: AMES SALMONELLA TYPHIMURIUM; Strain/Indicator: TA98; Metabolic Activation: RAT, LIVER, S-9, AROCLOR 1254; Method: STANDARD PLATE
Calls of active or inactive are those of the source. How the calls were made is not given here.
Form entry, call: pick from yes (1) (active), no (0) (inactive)

Assay result, entry Clc1c2ccccc2cc2c1ccc1ccccc12 — outcome?
yes (1)

Queued: Cc1nc2c3c(ccc4ccc(O)cc43)ccc2n1C
yes (1)

Queued: CP1(C)=NP(C)(C)=NP(C)(C)=N1
no (0)

Queued: Nc1ccc(S(N)(=O)=O)cc1
no (0)

Queued: Cc1cc(Cl)ccc1OCC(=O)O
no (0)

Queued: Clc1cccc(Cl)n1
no (0)

Queued: C=CC(=O)OCCCCCC
no (0)

Queued: O=CN(O)c1cccc(Cl)c1
no (0)

Queued: O=C/C=C/c1ccccc1
no (0)

Queued: C=CC(=C)CCC=C(C)C
no (0)

Queued: NC(N)=S
no (0)

Queued: Cn1cnc2c1c(=O)[nH]c(=O)n2C
no (0)

Queued: CSc1cc(SC)c(N)c(C)c1N
yes (1)

Queued: COc1ccccc1/C=C/C=O
no (0)

Queued: O=C(COc1cc(Cl)c(Cl)cc1Cl)N[C@@H](Cc1c[nH]c2ccccc12)C(=O)O
no (0)

Queued: Cc1ccc(N(O)C=O)cc1
yes (1)

Queued: CC(O)CN(C)c1ccc(NN)nn1 (stereo unspecified)
yes (1)

Queued: C=O
yes (1)

Queued: CN(C)P(=O)(N(C)C)N(C)C
no (0)

Queued: CS(=O)(=O)n1ncc(Cl)c(Cl)c1=O
no (0)

Queued: O=C(c1ccc([N+](=O)[O-])cc1)n1ncc(Cl)c(Cl)c1=O
no (0)

Queued: O=C(O)c1cc(Br)cc2cccnc12
no (0)

Queued: Cc1cc(=O)n(-c2ccccc2)n1C
no (0)

Queued: COc1ccc(C(=O)[C@@H]2O[C@@H]2c2ccccc2)cc1
no (0)

Queued: CC(=O)CC(C)(C)O
no (0)

Queued: CCOc1cc(N=Nc2ccc(N(CCO)CCO)cc2)ccc1N=Nc1c(S(=O)(=O)O)cc2ccc(N)cc2c1O
yes (1)

Queued: CC1=CCC(=O)O1
no (0)

Queued: COc1ccc(C=CC(=O)c2ccccc2)cc1
no (0)

Queued: O=C(NC(=O)c1c(F)cccc1F)Nc1cc(Cl)c(Oc2ncc(C(F)(F)F)cc2Cl)c(Cl)c1
no (0)

Queued: Oc1ccccc1
no (0)

Queued: ClC=C(Cl)Cl
yes (1)

Queued: Cc1cc2c(nc(N)n2C)c2ncc(-c3ccccc3)nc12
yes (1)

Queued: CN(C)c1ccc(NS(=O)(=O)c2cccc3cccnc23)cc1
yes (1)

Queued: CN=C=O
no (0)

Queued: C1COCO1
no (0)

Queued: Nc1n[nH]c(=S)s1
no (0)

Queued: CCOCC(=O)O
no (0)

Queued: Cc1ccc(N)cc1Cl
no (0)

Queued: O=C1c2ccccc2-c2cc([N+](=O)[O-])ccc21
yes (1)

Queued: O=C(/C=C/c1ccc(-c2ccccc2)cc1)c1ccccc1
no (0)

Queued: O=C1O[C@H]([C@@H](O)CO)C(O)=C1O
no (0)

Queued: COc1cc(N)ccc1NC(C)=O
yes (1)

Queued: CC/C=C/C=C/C=C/C=C/C=C/OC[C@@H](O)CO
no (0)

Queued: O=NC1=Cc2nc3ccccn3c2NC1
yes (1)

Queued: Nc1ccc(Sc2ccc([N+](=O)[O-])cc2)cc1
yes (1)

Queued: O=C1CNC(=O)N1
no (0)

Queued: CCCCC(CC)COC(=O)c1ccc(C(=O)O)cc1 (stereo unspecified)
no (0)

Queued: Fc1cccc(F)n1
no (0)

Queued: Nc1ccccc1
no (0)

Queued: CC1=C(/C=C/C(C)=C/C=C/C(C)=C/C=C/C=C(C)/C=C/C=C(C)/C=C/C2=C(C)C(=O)CCC2(C)C)C(C)(C)CCC1=O
no (0)

Queued: c1ccc2c(c1)cc1ccc3cccc4ncc2c1c34
yes (1)

====

# Test system: CCRIS mutagenicity, Ames/micronucleus/aberration tests
# assay-summary: CCRIS mutagenicity studies
# protocol-conditions: Test System: AMES SALMONELLA TYPHIMURIUM; Strain/Indicator: TA98; Metabolic Activation: NONE; Method: PREINCUBATION
Active and inactive are the calls of the source. How the calls were made is not given here.
Form entry, call: pick from Y = active, N = inactive

Assay result, entry Nc1ccc(Sc2ccc(N)cc2)cc1 — outcome?
N

Queued: OCc1ccccc1
N

Queued: Cc1cc(=O)[nH]c(=S)[nH]1
N

Queued: COc1c2occc2cc2ccc(=O)oc12
N

Queued: Nc1cccc([N+](=O)[O-])c1CO
N

Queued: CCOc1ccccc1[N+](=O)[O-]
N

Queued: CC(=O)OCc1ccc([N+](=O)[O-])cc1
N

Queued: NCCCCCCCCCCCC(=O)O
N

Queued: CC(=O)c1c(C)c([N+](=O)[O-])c(C(C)(C)C)c([N+](=O)[O-])c1C
N

Queued: O=[N+]([O-])c1ccc2c(c1)Cc1cccc([N+](=O)[O-])c1-2
Y

Queued: Oc1ccc2ccccc2c1N=Nc1ccccc1
N

Queued: B#B
N

Queued: Cc1cc2ccccc2cc1[N+](=O)[O-]
N

Queued: [Cl][Sb]([Cl])[Cl]
N

Queued: NC(N)=O
N

Queued: CCn1cc(C(=O)O)c(=O)c2ccc(C)nc21
N

Queued: Nc1c(Cl)cc([N+](=O)[O-])cc1Cl
Y

Queued: Cc1cccc(N)c1C
N

Queued: c1cc(OCC2CO2)cc(OCC2CO2)c1 (configuration not stated)
N

Queued: CCOCCOC(C)=O
N

Queued: O=[N+]([O-])c1ccc2cc3ccccc3cc2c1
Y

Queued: C/C=C\C(=O)O[C@@H]1C[C@H]2O[C@@H]3C=C(C)C(=O)C[C@]3(C)[C@]1(C)[C@]21CO1
N

Queued: CNCc1ccc(CSCCNC(=NCC(O)c2ccc(O)cc2)NS(C)(=O)=O)o1 (configuration not stated)
N

Queued: OC[P+](CO)(CO)CO
N

Queued: CC(=O)/C=C/c1ccco1
N

Queued: CC(C)c1ccccc1O
N

Queued: O=[N+]([O-])c1cc(Cl)ccc1Cl
N

Queued: Clc1cccc(Cl)c1Cl
N

Queued: ClC(Br)Br
N

Queued: Nc1ccc(-c2cc(Cl)c(N)c(Cl)c2)cc1Cl
Y

Queued: C1CNCCN1
N

Queued: NC(=Nc1ccccc1)Nc1ccccc1
N

Queued: C1CCCNCC1
N

Queued: Nc1cccc(Cl)c1
N

Queued: CCCCCN(CCCOC)C(=O)C(CCC(=O)O)NC(=O)c1ccc(Cl)c(Cl)c1 (configuration not stated)
N

Queued: F
N

Queued: N=C(N)S(=O)O
N

Queued: CCOCCOC(=O)/C=C/c1ccc(OC)cc1
N

Queued: Cc1cccc2ccc([N+](=O)[O-])cc12
Y

Queued: COC(=O)NC(=S)Nc1ccccc1NC(=S)NC(=O)OC
N

Queued: CCC[C@]1(O)CC[C@H]2[C@@H]3CC[C@H]4CC(=O)C[C@H](C)[C@]4(C)[C@H]3CC[C@@]21C
N

Queued: CCCCCCCCOP(=O)(OCCCCCCCC)OCCCCCCCC
N
